System: MDA-MB-231
test: Antiproliferative activity against human MDA-MB-231 cells assessed as reduction in cell viability measured for 72 hrs by CCK-8 assay
Format: functional, cell-based
condition.info: MDA-MB-231, 72 h
metric: pIC50
Give bare numbers, as −log10 of the molar value.

// fetch MDA-MB-231 pIC50 for CC(=O)c1cccc(NS(=O)(=O)c2ccc(C(=O)Nc3nc(-c4cccc(F)c4)cs3)cc2)c1
4.43

----------
assayed.target: D-3-phosphoglycerate dehydrogenase (Homo sapiens, UniProt O43175)
Sequence (O43175 whole entry): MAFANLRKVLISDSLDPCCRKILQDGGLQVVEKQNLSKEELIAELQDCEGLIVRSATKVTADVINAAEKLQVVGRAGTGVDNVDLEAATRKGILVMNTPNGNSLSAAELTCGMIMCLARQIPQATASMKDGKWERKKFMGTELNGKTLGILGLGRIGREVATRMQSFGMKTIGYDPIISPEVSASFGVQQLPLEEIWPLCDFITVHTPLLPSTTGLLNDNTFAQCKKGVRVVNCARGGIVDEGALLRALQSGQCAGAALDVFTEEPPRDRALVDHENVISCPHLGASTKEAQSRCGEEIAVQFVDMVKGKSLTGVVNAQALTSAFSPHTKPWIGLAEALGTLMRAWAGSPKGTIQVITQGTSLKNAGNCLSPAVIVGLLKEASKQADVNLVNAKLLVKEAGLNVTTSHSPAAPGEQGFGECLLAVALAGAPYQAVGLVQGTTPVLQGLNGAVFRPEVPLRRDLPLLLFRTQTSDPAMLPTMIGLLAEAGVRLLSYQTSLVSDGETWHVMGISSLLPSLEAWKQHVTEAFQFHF
test: Binding affinity to his-tagged PHGDH ([…] residues) (unknown origin) assessed as dissociation constant by SPR analysis
metric: Kd (nM)
Answers are plain numbers, in nM.

Recorded Kd of CC(=O)c1cccc(NS(=O)(=O)c2ccc(C(=O)Nc3nc(-c4cccc(F)c4)cs3)cc2)c1 , please.
2480

Data origin, for the record: ChEMBL document CHEMBL5316299
